system: GTPase HRas [G12V] (Homo sapiens, UniProt P01112, G12V)
Sequence (P01112 whole entry G12V, looked up): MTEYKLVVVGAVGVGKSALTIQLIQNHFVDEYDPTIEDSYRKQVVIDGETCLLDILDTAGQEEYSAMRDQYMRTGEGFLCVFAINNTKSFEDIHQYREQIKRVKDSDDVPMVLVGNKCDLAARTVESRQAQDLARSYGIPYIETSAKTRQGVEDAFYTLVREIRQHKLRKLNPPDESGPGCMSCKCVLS
experiment_summary: In Vitro Ras-Raf Binding Inhibitory Activity Assay
Item-by-item account of log10 IC50
For clarity, the numbers are log10 values of IC50 expressed in µM.

>>> readout_number("CC(=O)N1CCCC(c2cc(/C=C3/C(=O)c4ccccc4N3C(C)=O)nc3ccc(C(=O)N4CCOCC4)cc23)C1 (configuration not stated) [US20250091994, Example 179]")
0.00

Task: Look up log10 IC50 for this compound: CC(=O)N1C(=Cc2ccc3cc(C(=O)N4CCOCC4)ccc3c2)C(=O)c2ccccc21 [US20250091994, Example 66]
Result: 0.36

Task: Quick one: log10 IC50 of CC(=O)N1/C(=C\c2ccc(OCC(=O)N3CCOCC3)cn2)C(=O)c2ccccc21 [US20250091994, Example 22] ?
Result: 1.11

Task: Quick check: log10 IC50 of CC(=O)N1C(=Cc2cc(-c3cncnc3)c3cc(C(=O)N4CCOCC4)ccc3n2)C(=O)c2ccccc21 [US20250091994, Example 185] ?
Result: 0.20

Task: Entry under review: CC(=O)N1/C(=C\c2ccc3cc(CNC(=O)CN4CCOCC4)ccc3n2)C(=O)c2ccccc21 [US20250091994, Example 80] . Reported log10 IC50?
Result: -0.05

Task: Requested field: log10 IC50. Item: CC(=O)N1/C(=C/c2cc(-c3cccc(-c4cn[nH]c4)c3)c3cc(C(=O)N4CCOCC4)ccc3n2)C(=O)c2ccccc21 [US20250091994, Example 148]
Result: -0.52

Task: I'd like to know its log10 IC50. The compound in question is CC(=O)N1/C(=C\c2cc(-c3ccccc3-c3ccccc3)c3cc(C(=O)N4CCN(C)CC4)ccc3n2)C(=O)c2ccccc21 [US20250091994, Example 140]
Result: 0.11
